From: patent US4443246A

Assay: Toxicity to mammals (LD50, orally in mice)
Conditions: mouse, in vivo, po
recorded-endpoint: LD50

Consider the molecule shown here: Cc1cccc(CCOc2ccc(NC(=O)N(C)C)cc2)n1 [Compound No. 1] What is its recorded LD50?
≥ 300 mg/kg
